Where do the numbers come from? From patent US20160194299A1.

experiment: in vitro; details: African green monkey
Here, each record is paired with measured CC50 data.

compound: O=C(NC(=O)c1ccsc1NC(=O)c1cnc2ccnn2c1)OCc1ccccc1F
CC50: < 25 µg/mL
//
compound: CCOC(=O)NC(=O)c1ccsc1NC(=O)c1ccc2sc(C3CC3)nc2c1
CC50: > 50 µg/mL
//
compound: C#CCOC(=O)NC(=O)c1ccsc1NC(=O)c1nc2ccccc2s1
CC50: < 25 µg/mL
//
compound: CCOC(=O)NC(=O)c1ccsc1NC(=O)c1nc2ccccc2s1
CC50: > 50 µg/mL

Now for the compound whose CC50 we want.
CC50 reported for this compound CC(CN1CCOCC1)OC(=O)NC(=O)c1ccsc1NC(=O)c1nc2ccccc2s1 (centres unmarked) : < 25 µg/mL

---

experiment: in vitro; conditions: human
Here, each record is paired with measured CC50 data.

Known results for molecules:
chem.smiles: CCOC(=O)NC(=O)c1ccsc1NC(=O)c1ccnc(NC(=O)C(C)(C)C)c1
parameter: CC50
result: > 50 µg/mL

chem.smiles: CCOC(=O)NC(=O)c1ccsc1NC(=O)c1cccc(NC(C)=O)c1
parameter: CC50
result: > 50 µg/mL

chem.smiles: CCOC(=O)NC(=O)c1ccsc1NC(=O)c1ccnc(NC(=O)OC)c1
parameter: CC50
result: 25 to 50 µg/mL

CC50 reported for this molecule CCOC(=O)NC(=O)c1ccsc1NC(=O)c1nc2cc(F)ccc2s1 : 25 to 50 µg/mL

---

assay: in vitro; conditions: African green monkey
parameter: CC50

Known results for molecules:
chem.smiles: CCOC(=O)NC(=O)c1ccsc1NC(=O)c1cc2cccc(F)c2s1
CC50: < 25 µg/mL
//
chem.smiles: CCOC(=O)NC(=O)c1ccsc1NC(=O)c1cccc2cccnc12
CC50: > 50 µg/mL
//
chem.smiles: O=C(Nc1sccc1C(=O)OC1CCCCC1)c1nc2ccccc2s1
CC50: > 50 µg/mL
//
chem.smiles: CCOC(=O)NC(=O)c1ccsc1NC(=O)c1ccc2ocnc2c1
CC50: > 50 µg/mL
//
chem.smiles: CCOC(=O)NC(=O)c1ccsc1NC(=O)c1nc(-c2ccccc2)cs1
CC50: > 50 µg/mL
//
chem.smiles: O=C(NC(=O)c1ccsc1NC(=O)c1nc2ccccc2s1)OCCF
CC50: > 50 µg/mL
//
chem.smiles: CCOC(=O)NC(=O)c1ccsc1NC(=O)c1csc2c1CCN(S(C)(=O)=O)C2
CC50: > 50 µg/mL
//
chem.smiles: CCOC(=O)NC(=O)c1ccsc1NC(=O)c1ccnc(NC(=O)N2CCOCC2)c1
CC50: > 50 µg/mL

CC50 reported for this molecule CCOC(=O)NC(=O)c1ccsc1NC(=O)c1nc2cnccc2s1 : > 50 µg/mL

CC50 reported for this molecule CCOC(=O)NC(=O)c1ccsc1NC(=O)c1cc2c(s1)CCN(S(C)(=O)=O)C2 : > 50 µg/mL

CC50 reported for this molecule CCOC(=O)NC(=O)c1ccsc1NC(=O)c1csc(-c2ccccn2)n1 : > 50 µg/mL

CC50 reported for this molecule CCOC(=O)NC(=O)c1ccsc1NC(=O)c1cnc2c(N3CCOCC3)cnn2c1 : 25 to 50 µg/mL

CC50 reported for this molecule CCOC(=O)NC(=O)c1ccsc1NC(=O)c1nc2ncccn2n1 : > 50 µg/mL

CC50 reported for this molecule O=C(Nc1sccc1C(=O)Nc1ncccn1)c1nc2cnccc2s1 : 25 to 50 µg/mL

CC50 reported for this molecule O=C(Nc1sccc1C(=O)NC(=O)N1CCOCC1)c1nc2cnccc2s1 : < 25 µg/mL

CC50 reported for this molecule CCOC(=O)NC(=O)c1ccsc1NC(=O)c1cn2ncccc2n1 : > 50 µg/mL

CC50 reported for this molecule CCOC(=O)NC(=O)c1ccsc1NC(=O)C1=Cc2ccccc2OC1 : > 50 µg/mL

CC50 reported for this molecule CC(C)OC(=O)NC(=O)c1cc(F)sc1NC(=O)c1nc2ncccc2s1 : < 25 µg/mL
